biological target: Mutant CD33-GFP JS23 (L23N) on 293FT cells (UniProt P20138); assay: FACS, mutant CD33-GFP on 293FT cells
Sequence (P20138 18-364 L23N): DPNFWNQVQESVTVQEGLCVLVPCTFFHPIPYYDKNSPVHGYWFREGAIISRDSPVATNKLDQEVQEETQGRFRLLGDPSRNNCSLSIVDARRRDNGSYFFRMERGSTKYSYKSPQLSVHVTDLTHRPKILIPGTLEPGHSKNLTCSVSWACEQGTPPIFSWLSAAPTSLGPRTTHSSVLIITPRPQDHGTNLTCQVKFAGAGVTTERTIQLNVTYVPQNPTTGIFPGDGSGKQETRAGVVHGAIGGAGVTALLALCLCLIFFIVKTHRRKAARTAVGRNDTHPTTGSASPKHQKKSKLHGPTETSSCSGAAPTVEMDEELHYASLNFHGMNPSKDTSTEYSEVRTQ
Entries and their measured FACS binding data follow.
// no unit string in output, number only

binder: sdCD33_7 (VHH, sdAb from a naive llama phage library; also called 420; sdAb420) VHH: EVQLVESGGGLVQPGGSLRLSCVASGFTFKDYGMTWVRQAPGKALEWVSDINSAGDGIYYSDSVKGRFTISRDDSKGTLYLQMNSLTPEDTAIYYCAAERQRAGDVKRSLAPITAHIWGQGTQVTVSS
FACS binding data: 98.7
--
binder: sdCD33_8 (VHH, sdAb from a naive llama phage library; also called 424; sdAb424) VHH: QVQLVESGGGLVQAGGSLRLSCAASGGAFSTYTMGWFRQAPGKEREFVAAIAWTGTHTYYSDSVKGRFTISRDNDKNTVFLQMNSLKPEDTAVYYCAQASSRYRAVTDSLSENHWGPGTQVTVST
FACS binding data: 97.8
--
binder: sdCD33_4 (VHH) VHH: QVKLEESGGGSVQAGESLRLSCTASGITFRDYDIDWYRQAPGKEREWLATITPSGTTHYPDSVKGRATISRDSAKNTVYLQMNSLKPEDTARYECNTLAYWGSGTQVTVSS
FACS binding data: 99

### Prompt Consider the binder sdCD33_10 (VHH) VHH: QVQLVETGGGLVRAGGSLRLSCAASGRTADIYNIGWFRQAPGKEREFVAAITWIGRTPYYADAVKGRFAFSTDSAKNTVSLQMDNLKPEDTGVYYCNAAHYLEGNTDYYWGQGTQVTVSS and give its measured FACS binding data.
### Response 98.4
